Data credit: PubChem BioAssay (NCI)

- System: SK-MEL-2 melanoma
- TEST_NAME: NCI tumour cell line growth inhibition, 48 h
Recorded TGI by entry

## Input Consider the compound shown here: `O=C(O)COc1ccc(OCC(=O)O)cc1` What is its recorded TGI?
## Output 15.9 µM

## Input Consider the compound shown here: `Cc1c(OCc2cccc3ccccc23)ccc2c(=O)cc(SCCN3CCOCC3)oc12` What is its recorded TGI?
## Output > 100 µM

## Input Consider the compound shown here: Nc1nc(Cl)nc2c1ncn2C1OC(CO)C(O)C1F (stereo not given) What is its recorded TGI?
## Output > 100 µM

## Input Consider the compound shown here: Cc1cc(=O)[nH]c(NNC(C#N)c2ccccc2O)n1 (stereo not given) What is its recorded TGI?
## Output > 100 µM
